- experimental_system: Serotonin 3 (5-HT3) receptor
- protocol_notes: Binding affinity towards 5-hydroxytryptamine 3 receptor
- Format: protein-complex assay
measured_attribute: pKi
Numbers only, as −log10 of the molar value.

# example entries with known answers
NC1CCN(c2cccc(Cl)n2)CC1	6.99
CN1CCN(c2nc3ccccc3c3c2CC2CCC3C2)CC1 (stereo not drawn)	9.08

# batch: return pKi for each of the 4 compounds below
1. Clc1ccc2ccc(N3CCNCC3)nc2c1
2. O=[N+]([O-])c1ccc2nc(N3CCNCC3)ccc2c1 [6-NITROQUIPAZINE]
3. CN1CCN(c2nc3ccccc3n3cccc23)CC1
4. CN1CCN(c2nc3ccccc3c3ccccc23)CC1

// result
[7.42, 7.24, 9.64, 8.72]

# batch: return pKi for each of the 2 compounds below
1. CN1CCN(c2nc3ccccc3c3c2CCCC3)CC1
2. CN1CCN(c2cc3cc(F)ccc3n3cccc23)CC1

// result
9.64
9.29
